Where these numbers come from: patent US20240197737A1

The entries below are paired with their reported IC50.
Molecular target: ErbB2 (D769Y) (Homo sapiens, UniProt P04626, D769Y)
Sequence (P04626 23-1255 D769Y): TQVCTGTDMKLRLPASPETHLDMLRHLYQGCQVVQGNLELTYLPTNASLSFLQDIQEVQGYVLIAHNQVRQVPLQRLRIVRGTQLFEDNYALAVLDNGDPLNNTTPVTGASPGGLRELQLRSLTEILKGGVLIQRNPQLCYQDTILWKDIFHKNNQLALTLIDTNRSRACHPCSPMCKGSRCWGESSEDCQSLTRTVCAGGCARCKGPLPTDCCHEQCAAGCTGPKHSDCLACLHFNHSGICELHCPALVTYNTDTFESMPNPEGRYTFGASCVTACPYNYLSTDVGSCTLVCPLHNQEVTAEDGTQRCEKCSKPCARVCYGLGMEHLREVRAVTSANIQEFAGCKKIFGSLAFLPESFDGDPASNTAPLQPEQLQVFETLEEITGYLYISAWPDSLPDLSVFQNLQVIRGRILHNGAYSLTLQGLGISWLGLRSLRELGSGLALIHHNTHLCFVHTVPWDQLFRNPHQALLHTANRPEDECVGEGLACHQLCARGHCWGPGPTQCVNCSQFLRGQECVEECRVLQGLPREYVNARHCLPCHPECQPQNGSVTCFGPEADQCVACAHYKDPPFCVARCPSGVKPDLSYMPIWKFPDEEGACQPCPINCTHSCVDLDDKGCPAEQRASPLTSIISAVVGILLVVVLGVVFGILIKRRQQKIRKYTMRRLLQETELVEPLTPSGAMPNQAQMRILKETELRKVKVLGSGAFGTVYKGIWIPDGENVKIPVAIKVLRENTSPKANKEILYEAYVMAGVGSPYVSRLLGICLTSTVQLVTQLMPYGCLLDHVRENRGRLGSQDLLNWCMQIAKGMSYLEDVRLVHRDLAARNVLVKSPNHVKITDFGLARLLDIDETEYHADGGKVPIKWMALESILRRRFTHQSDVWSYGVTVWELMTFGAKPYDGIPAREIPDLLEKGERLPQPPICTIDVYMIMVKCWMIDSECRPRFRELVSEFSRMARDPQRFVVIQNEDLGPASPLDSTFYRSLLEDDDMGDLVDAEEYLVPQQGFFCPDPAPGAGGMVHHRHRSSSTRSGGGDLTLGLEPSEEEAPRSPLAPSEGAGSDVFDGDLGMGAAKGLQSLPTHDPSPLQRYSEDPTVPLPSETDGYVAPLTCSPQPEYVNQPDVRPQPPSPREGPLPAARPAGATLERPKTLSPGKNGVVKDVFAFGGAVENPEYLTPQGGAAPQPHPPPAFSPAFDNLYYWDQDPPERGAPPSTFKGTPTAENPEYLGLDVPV
Assay: ErbB2 mutant inhibition assay (33P-ATP radiometric kinase assay, Reaction Biology)
Details: ATP 10 μM, 20 min preincubation, 2 h reaction; read-out: Compound IC50 ErbB2 (D769Y)

                                   compound  endpoint_name    result
0  Cc1cc(Nc2ncnc3ccc(NC(=O)/C=C/[C@H]4CCCN4C)cc23)ccc1Oc1ccn2ccnc2c1           IC50  0.244 nM
1  Cc1cc(Nc2ncnc3ccc(NC(=O)/C=C/[C@H]4CCCN4C)cc23)ccc1Oc1ccc2nccn2n1           IC50   38.9 nM
2  Cc1cc(Nc2ncnc3ccc(NC(=O)/C(F)=C/[C@H]4CCCN4C)cc23)ccc1Oc1cc2nncn2cn1           IC50  0.811 nM
3  Cc1cc(Nc2ncnc3ccc(NC4=NC(C)(C)CO4)cc23)ccc1Oc1ccn2ncnc2c1 [Tucatinib, reference compound]           IC50   8.89 nM
4  CCOc1cc2ncnc(Nc3ccc(Oc4cc5nncn5cn4)c(C)c3)c2cc1NC(=O)/C=C/[C@H]1CCCN1C           IC50  0.413 nM

Exercise: Identify the reported IC50 for the following entry. "CCOc1cc2ncc(C#N)c(Nc3ccc(Oc4cc5nncn5cn4)c(C)c3)c2cc1NC(=O)/C=C/[C@H]1CCCN1C"
Key: 2.06 nM

Exercise: Identify the reported IC50 for the following entry. "CCOc1cc2ncnc(Nc3ccc(Oc4ccn5ncnc5c4)c(C)c3)c2cc1NC(=O)/C=C/[C@H]1CCCN1C"
Key: < 0.152 nM

Exercise: Identify the reported IC50 for the following entry. "Cc1cc(Nc2ncnc3ccc(NC(=O)/C=C/[C@H]4CCCN4C)cc23)ccc1Oc1ccn2cnnc2c1"
Key: 1.98 nM

Exercise: Identify the reported IC50 for the following entry. "Cc1cc(Nc2ncnc3ccc(NC(=O)/C=C/[C@H]4CCCN4)cc23)ccc1Oc1cc2nncn2cn1"
Key: 0.247 nM

Exercise: Identify the reported IC50 for the following entry. "COCCOc1cc2ncnc(Nc3ccc(Oc4cc5nncn5cn4)c(C)c3)c2cc1NC(=O)/C=C/[C@H]1CCCN1C"
Key: < 0.152 nM

Exercise: Identify the reported IC50 for the following entry. "CN1CCC[C@@H]1/C=C/C(=O)Nc1ccc2ncnc(Nc3ccc(Oc4cc5nncn5cn4)c(Cl)c3)c2c1"
Key: < 0.152 nM

Exercise: Identify the reported IC50 for the following entry. "Cc1cc(Nc2ncnc3ccc(NC(=O)/C=C/[C@H]4CCCN4)cc23)ccc1Oc1ccn2ncnc2c1"
Key: 0.246 nM
